# credit: BindingDB's records for doi:10.1124/mol.51.1.109

Molecular target: P2X purinoceptor 4 (Rattus norvegicus, UniProt P51577)
Sequence (P51577 whole entry): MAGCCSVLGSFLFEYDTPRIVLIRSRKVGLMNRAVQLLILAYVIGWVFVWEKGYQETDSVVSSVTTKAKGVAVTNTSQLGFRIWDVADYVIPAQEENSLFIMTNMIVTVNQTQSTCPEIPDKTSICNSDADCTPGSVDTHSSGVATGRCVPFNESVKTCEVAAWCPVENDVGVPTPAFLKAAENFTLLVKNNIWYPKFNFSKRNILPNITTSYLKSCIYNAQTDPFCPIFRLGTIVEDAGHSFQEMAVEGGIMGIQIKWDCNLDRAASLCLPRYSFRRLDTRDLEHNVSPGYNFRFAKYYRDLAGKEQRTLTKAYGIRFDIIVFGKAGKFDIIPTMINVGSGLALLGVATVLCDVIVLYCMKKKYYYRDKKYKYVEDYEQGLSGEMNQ
Some molecules, each annotated with its measured pKi.
API: returns pKi as number; meaning -log10 of concentration in mol/L.

These solved cases illustrate the format of a correct answer.
# Structure Smiles String, pKi
records = [
    ("Cc1ccc(C(=O)Nc2ccc(S(=O)(=O)O)c3cc(S(=O)(=O)O)cc(S(=O)(=O)O)c23)cc1NC(=O)c1cccc(NC(=O)Nc2cccc(C(=O)Nc3cc(C(=O)Nc4ccc(S(=O)(=O)O)c5cc(S(=O)(=O)O)cc(S(=O)(=O)O)c45)ccc3C)c2)c1", 6.30),
    ("Nc1c(S(=O)(=O)O)cc(Nc2ccc(Nc3nc(Cl)nc(Nc4ccccc4S(=O)(=O)O)n3)c(S(=O)(=O)O)c2)c2c1C(=O)c1ccccc1C2=O", 6.89),
    ("Nc1c(S(=O)(=O)O)cc(Nc2ccc(Nc3nc(Cl)nc(Nc4cccc(S(=O)(=O)O)c4)n3)c(S(=O)(=O)O)c2)c2c1C(=O)c1ccccc1C2=O", 7.34),
]

Note to self: pKi of O=S1(=O)OC(c2cc(Br)c(O)c(Br)c2)(c2cc(Br)c(O)c(Br)c2)c2ccccc21 with P2X purinoceptor 4 (Rattus norvegicus, UniProt P51577) was 6.52
